Please provide measured pIC50 for the entries that follow.
# assayed_system: Human plasma kallikrein (Homo sapiens)
# Construct: yields a heavy chain (371 amino acids) and a light chain (248 amino acids)
# Sequence (P03952 391-638 limits assumed): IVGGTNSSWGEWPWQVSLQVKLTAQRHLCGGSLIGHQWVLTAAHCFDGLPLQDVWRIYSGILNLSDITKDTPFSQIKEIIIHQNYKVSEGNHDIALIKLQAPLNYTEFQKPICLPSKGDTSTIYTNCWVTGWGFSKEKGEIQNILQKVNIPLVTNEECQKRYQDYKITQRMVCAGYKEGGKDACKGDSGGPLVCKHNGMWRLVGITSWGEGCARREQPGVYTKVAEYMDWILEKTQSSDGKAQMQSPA
# Sequence (P03952 20-390 partner limits assumed): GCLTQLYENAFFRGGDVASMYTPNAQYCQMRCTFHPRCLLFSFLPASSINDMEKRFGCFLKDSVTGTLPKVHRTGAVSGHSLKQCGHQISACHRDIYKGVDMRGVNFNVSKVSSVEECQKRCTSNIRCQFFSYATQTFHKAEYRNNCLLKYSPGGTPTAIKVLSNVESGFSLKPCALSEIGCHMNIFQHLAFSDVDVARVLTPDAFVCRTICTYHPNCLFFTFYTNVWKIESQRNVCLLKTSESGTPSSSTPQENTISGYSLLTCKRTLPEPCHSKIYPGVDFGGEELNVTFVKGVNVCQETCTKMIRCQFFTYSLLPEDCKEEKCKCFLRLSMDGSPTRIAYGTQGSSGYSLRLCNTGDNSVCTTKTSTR
# method_description: Plasma Kallikrein Assay
# recorded_conditions: purified Human plasma kallikrein 0.5 nM, substrate Acetyl-K-P-R-AFC; read-out: PKal IC50
Give bare numbers, as −log10 of the molar value.

> print(dat)
                                   compound                          assayed.system  result.number
1  CCC(c1ccc2ncncc2c1)n1cc(C(=O)N2CCC[C@@]3(C2)OC(=O)Nc2ccc(Cl)c(F)c23)cn1 (single isomer, unassigned) [Example 41]  Human plasma kallikrein (Homo sapiens)           7.47
2  Cc1cccc(Cc2n[nH]c(C(=O)N3CCC[C@@]4(C3)OC(=O)Nc3ccc(Cl)c(F)c34)n2)c1  Human plasma kallikrein (Homo sapiens)           7.74
3  CCC(c1ccc(F)c(Cl)c1)c1nnc(C(=O)N2CCC[C@@]3(C2)OC(=O)Nc2ccc(Cl)c(F)c23)[nH]1 (single isomer, unassigned) [Example 96]  Human plasma kallikrein (Homo sapiens)           8.46

Look at each compound and report its pIC50.
1. COCC(c1ccccc1)c1n[nH]c(C(=O)N2CCC[C@@]3(C2)OC(=O)Nc2ccc(Cl)c(F)c23)n1 (stereo partly drawn)
2. O=C1Nc2ccc(Cl)c(F)c2[C@@]2(CCCN(C(=O)c3nnc(Cc4cccc(OC(F)F)c4)[nH]3)C2)O1
3. Cc1cc(Cc2nnc(C(=O)N3CCC[C@@]4(C3)OC(=O)Nc3ccc(Cl)c(F)c34)[nH]2)cc2[nH]ncc12

## Output
1: 8.28; 2: 7.48; 3: 7.87
